Tested on: MOG-G-CCM (Low Grade Glioma)
test.name: combination Emax (second highest fraction inhibited in the dose matrix, 72 h); higher = more inhibition; extreme values may be limits of the assay
property: combination Emax

C[C@@H](c1ccc2nccn2c1)n1nnc2ncc(-c3cnn(C)c3)nc21 [Savolitinib] + Cc1c2c(nn1C)CSCc1cc(n(C)n1)CSc1cc(c3ccccc3c1)OCCCc1c(C(=O)O)n(C)c3c-2c(Cl)ccc13 [AZD5991] (first compound max 1 µM, 7x7, partner max 1 µM) | 0.212
N#Cc1cnc(Nc2cc(NC[C@H]3CNCCO3)c(C(F)(F)F)cn2)cn1 [SRA737] + C=CCn1c(=O)c2cnc(Nc3ccc(N4CCN(C)CC4)cc3)nc2n1-c1cccc(C(C)(C)O)n1 [AZD1775] (first compound max 10 µM, partner max 1 µM) | 0.683
COc1cccc(OCCCN)c1-c1cc(Nc2cnc(C#N)cn2)n[nH]1 [Prexasertib] + C=CCn1c(=O)c2cnc(Nc3ccc(N4CCN(C)CC4)cc3)nc2n1-c1cccc(C(C)(C)O)n1 [AZD1775] (first compound max 1 µM, partner max 1 µM) | 0.821
COc1cccc(OCCCN)c1-c1cc(Nc2cnc(C#N)cn2)n[nH]1 [Prexasertib] + C[C@@H]1COCCN1C2=NC(=NC(=C2)C3(CC3)[S@](=N)(=O)C)C4=C5C=CNC5=NC=C4 [AZD6738] (first compound max 1 µM, 7x7, partner max 10 µM) | 0.644

----------
System: NCI-H2731 (Mesothelioma);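 also: after 72 h of two-drug dosing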
test.name: Bliss excess, mean over the matrix (fraction); higher = more synergy
property: Bliss excess

CN(C)CCCOc1ccc(-c2ccc3ncc4c(c3c2)n(C2CCOCC2)c(=O)n4C)cn1 [AZD0156] + CCN(CCO)CCCOc1ccc2c(Nc3cc(CC(=O)Nc4cccc(F)c4)[nH]n3)ncnc2c1 [AZD2811] (first compound max 1 µM, 7x7, partner max 1 µM) | -0.0279
Cc1nc(Nc2ncc(C(=O)Nc3c(C)cccc3Cl)s2)cc(N2CCN(CCO)CC2)n1 [Dasatinib] + CC(=O)Nc1cccc(-n2c(=O)n(C3CC3)c(=O)c3c(Nc4ccc(I)cc4F)n(C)c(=O)c(C)c32)c1 [Trametinib] (first compound max 2 µM, 7x7, partner max 1 µM) | 0.0298

----------
Listed next: entries and their corresponding combination Emax.
Tested on: SU-DHL-5 (B-Cell Non-Hodgkin's Lymphoma)
test.name: combination Emax (second highest fraction inhibited in the dose matrix, 72 h); higher = more inhibition; extreme values may be limits of the assay
property: combination Emax

COc1cccc(OCCCN)c1-c1cc(Nc2cnc(C#N)cn2)n[nH]1 [Prexasertib] + Cc1cc2ncnn2cc1Nc1ncc2c(n1)n(C1CCOCC1)c(=O)n2C [AZD7648] (first compound max 1 µM, 7x7, partner max 10 µM) | 1
CC(=O)c1c(C)c2cnc(Nc3ccc(N4CCNCC4)cn3)nc2n(C2CCCC2)c1=O [Palbociclib] + CN(CC[C@H](CSC1=CC=CC=C1)NC2=C(C=C(C=C2)S(=O)(=O)NC(=O)C3=CC=C(C=C3)N4CCC(CC4)[C@H](C5=CC=CC=C5C6=CC=C(C=C6)Cl)O)S(=O)(=O)C(F)(F)F)CCO [AZD4320] (first compound max 10 µM, 7x7, partner max 1 µM) | 1
Cc1c2c(nn1C)CSCc1cc(n(C)n1)CSc1cc(c3ccccc3c1)OCCCc1c(C(=O)O)n(C)c3c-2c(Cl)ccc13 [AZD5991] + C[C@@H](Nc1cc(F)cc(F)c1)c1cc(C(=O)N(C)C)cc2c(=O)cc(N3CCOCC3)oc12 [AZD8186] (first compound max 1 µM, 7x7, partner max 3 µM) | 1
